Attribution: patent US10160785B2

For each entry below, report its Metabolic activity (%) S. aureus (Liberec) value.
tested on: S. aureus (Liberec) biofilm; test: Bacterial biofilm, remaining metabolic activity (MTT); format: cell-based, Staphylococcus aureus; conditions: remaining metabolic activity of biofilm; peptide concentration 64 μmol · l^−1; 20 h
Kindly provide the numeric value in % only, without the unit symbol.

Prompt: Please tell me: Metabolic activity (%) S. aureus (Liberec) of H-Gly-Ile-Leu-Ser-Ser-Leu-Trp-Lys-Lys-Leu-Lys-Lys-Ile-Ile-Ala-Lys-NH2 (H-GILSSLWKKLKKIIAK-NH2; also: D-amino acids (positions not given here)) [XIX] , system S. aureus (Liberec) biofilm?
Response: 2.3

Prompt: Please tell me: Metabolic activity (%) S. aureus (Liberec) of H-GILSSLWKKLKKIIAK-NH2 [XII] , system S. aureus (Liberec) biofilm?
Response: 14.7

Prompt: Please tell me: Metabolic activity (%) S. aureus (Liberec) of H-GILSSLLKKLKKIIAK-NH2 [III] , system S. aureus (Liberec) biofilm?
Response: 15.9

Prompt: Please tell me: Metabolic activity (%) S. aureus (Liberec) of H-GIMSSLMKKLKKIIAK-NH2 [I] , system S. aureus (Liberec) biofilm?
Response: 101.9

Prompt: Please tell me: Metabolic activity (%) S. aureus (Liberec) of H-GIMSSLMKKLAAIIKK-NH2 [IX] , system S. aureus (Liberec) biofilm?
Response: 30.5
